- testTarget: T1, Epidermal growth factor receptor 2 (HER2 or ErbB-2) on HER2+ SKOV3 cells (human, UniProt P04626 23-1255)
- T1 construct: whole, on cells; Only claim 72 calls it 'human epidermal growth factor receptor 2 (HER2)'
- experimentSummary: split-luciferase complementation on HER2+ SKOV3 cells (lysates, washed); paired with β9-HTras
propertyName: Signal-to-Background (Ratio of Relative Luminescence Units) (ratio)
Supply the numeric figure in ratio, leaving out any unit text.

β10*-9.29 (designed binder, DARPin fusion expressed in E. coli, used as lysate; also called DARPin 9.29 with N-terminal β10*) MVSGWRLFKKISGGGSGHHHHHHHHGGGSGGSDLGKKLLEAARAGQDDEVRILMANGADVNAHDFYGITPLHLAANFGHLEIVEVLLKHGADVNAFDYDNTPLHLAADAGHLEIVEVLLKYGADVNASDRDGHTPLHLAAREGHLEIVEVLLKNGADVNAQDKFGKTPFDLAIDNGNEDIAEVLQKAA
38
73JH-β10* (Fab, V domains shown, Fab fusion expressed in E. coli, used as lysate; also called 73J Fab with β10* at the C-terminus of the heavy chain) VH: EVQLVESGGGLVQPGGSLRLSCAASGFNLYSSYIHWVRQAPGKGLEWVASIYPYSSYTSYADSVKGRFTISADTSKNTAYLQMNSLRAEDTAVYYCARYYGFAMDYWGQGTLVTVSS VL: DIQMTQSPSSLSASVGDRVTITCRASQSVSSAVAWYQQKPGKAPKLLIYSASSLYSGVPSRFSGSRSGTDFTLTISSLQPEDFATYYCQQGYYYPFTFGQGTKVEIKR
170
G3-β10* (designed binder, DARPin fusion expressed in E. coli; Used as lysate in the screen and later IMAC-purified; also called DARPin G3 with C-terminal β10*) MRGSHHHHHHGSDLGKKLLEAARAGQDDEVRILMANGADVNAKDEYGLTPLYLATAHGHLEIVEVLLKNGADVNAVDAIGFTPLHLAAFIGHLEIAEVLLKHGADVNAQDKFGKTAFDISIGNGNEDLAEILQKLNGGGSGGGGSGGGGSGVSGWRLFKKIS
508

Consider the binder shown here: β10*-G3 (designed binder, DARPin fusion expressed in E. coli, used as lysate; also called DARPin G3 with N-terminal β10*) MVSGWRLFKKISGGGSGHHHHHHHHGGGSGDLGKKLLEAARAGQDDEVRILMANGADVNAKDEYGLTPLYLATAHGHLEIVEVLLKNGADVNAVDAIGFTPLHLAAFIGHLEIAEVLLKHGADVNAQDKFGKTAFDISIGNGNEDLAEILQKLN What is its recorded Signal-to-Background (Ratio of Relative Luminescence Units)?
87

Consider the binder shown here: β10*-L73J (Fab, V domains shown, Fab fusion expressed in E. coli, used as lysate; also called 73J Fab with β10* at the N-terminus of the light chain) VH: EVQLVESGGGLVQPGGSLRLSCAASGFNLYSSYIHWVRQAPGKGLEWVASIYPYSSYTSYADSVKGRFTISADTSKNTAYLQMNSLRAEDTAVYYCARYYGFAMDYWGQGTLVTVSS VL: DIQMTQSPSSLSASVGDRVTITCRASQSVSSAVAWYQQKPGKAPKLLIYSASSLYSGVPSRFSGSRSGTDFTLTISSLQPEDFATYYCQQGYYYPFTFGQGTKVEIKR What is its recorded Signal-to-Background (Ratio of Relative Luminescence Units)?
3
